# credit: patent US12390472B2

Target: EZH2 enzyme complex (Homo sapiens (Human), UniProt Q15910)
Sequence (Q15910 whole entry): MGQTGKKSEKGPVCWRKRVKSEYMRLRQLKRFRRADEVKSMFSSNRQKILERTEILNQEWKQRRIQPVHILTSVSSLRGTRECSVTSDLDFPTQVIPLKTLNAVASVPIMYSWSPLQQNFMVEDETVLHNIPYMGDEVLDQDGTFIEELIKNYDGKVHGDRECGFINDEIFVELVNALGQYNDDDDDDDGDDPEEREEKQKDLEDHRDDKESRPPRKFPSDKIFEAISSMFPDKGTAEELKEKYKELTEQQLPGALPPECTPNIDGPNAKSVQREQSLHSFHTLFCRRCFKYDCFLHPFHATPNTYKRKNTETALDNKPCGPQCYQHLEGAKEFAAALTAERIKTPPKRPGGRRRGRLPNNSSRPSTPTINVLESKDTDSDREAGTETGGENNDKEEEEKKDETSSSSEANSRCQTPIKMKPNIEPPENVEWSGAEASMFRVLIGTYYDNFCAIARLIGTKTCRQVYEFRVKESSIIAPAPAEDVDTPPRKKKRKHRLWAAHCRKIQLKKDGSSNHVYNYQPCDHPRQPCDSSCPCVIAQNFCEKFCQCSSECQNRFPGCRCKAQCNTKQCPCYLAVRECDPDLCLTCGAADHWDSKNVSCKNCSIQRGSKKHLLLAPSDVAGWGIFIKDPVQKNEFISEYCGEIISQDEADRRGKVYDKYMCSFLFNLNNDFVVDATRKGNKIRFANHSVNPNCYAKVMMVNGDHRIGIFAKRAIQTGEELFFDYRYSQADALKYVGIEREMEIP
Sequence (O75530 whole entry partner): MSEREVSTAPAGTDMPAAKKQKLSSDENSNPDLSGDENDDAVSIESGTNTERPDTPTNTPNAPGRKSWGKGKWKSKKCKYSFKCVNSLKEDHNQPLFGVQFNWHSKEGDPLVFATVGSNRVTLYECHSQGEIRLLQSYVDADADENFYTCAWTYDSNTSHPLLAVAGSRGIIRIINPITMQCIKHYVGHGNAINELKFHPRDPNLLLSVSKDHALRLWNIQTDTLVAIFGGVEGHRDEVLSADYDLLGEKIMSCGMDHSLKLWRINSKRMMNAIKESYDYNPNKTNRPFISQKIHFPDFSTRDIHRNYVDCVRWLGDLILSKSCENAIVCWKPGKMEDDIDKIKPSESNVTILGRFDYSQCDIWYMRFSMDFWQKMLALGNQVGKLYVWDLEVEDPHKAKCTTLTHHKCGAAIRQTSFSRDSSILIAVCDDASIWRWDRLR
Sequence (Q15022 whole entry partner): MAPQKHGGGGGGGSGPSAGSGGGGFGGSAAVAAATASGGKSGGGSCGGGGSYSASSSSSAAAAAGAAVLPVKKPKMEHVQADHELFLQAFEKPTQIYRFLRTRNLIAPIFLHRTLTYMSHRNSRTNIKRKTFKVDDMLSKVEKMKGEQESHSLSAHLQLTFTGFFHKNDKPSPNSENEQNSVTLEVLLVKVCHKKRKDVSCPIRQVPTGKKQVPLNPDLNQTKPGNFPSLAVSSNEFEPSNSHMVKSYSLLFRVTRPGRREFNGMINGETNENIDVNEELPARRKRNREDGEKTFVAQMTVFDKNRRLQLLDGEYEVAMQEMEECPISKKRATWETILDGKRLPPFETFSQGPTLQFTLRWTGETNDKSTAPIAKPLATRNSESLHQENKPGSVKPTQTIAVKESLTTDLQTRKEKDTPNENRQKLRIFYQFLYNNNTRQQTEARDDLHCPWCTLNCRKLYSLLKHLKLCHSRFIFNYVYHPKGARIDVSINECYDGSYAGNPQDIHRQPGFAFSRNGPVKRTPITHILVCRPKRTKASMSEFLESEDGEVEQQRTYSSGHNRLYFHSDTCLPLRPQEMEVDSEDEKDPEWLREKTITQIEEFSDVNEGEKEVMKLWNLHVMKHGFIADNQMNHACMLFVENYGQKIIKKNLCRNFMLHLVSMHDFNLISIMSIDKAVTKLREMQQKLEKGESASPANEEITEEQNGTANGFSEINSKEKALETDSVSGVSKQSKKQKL
Experiment: Test on EZH2 inhibitory activity (TR-FRET)
Details: EZH2 enzyme complex 25 ng/uL, histone H3 peptide 4 uM, SAM 2 uM, 300 min; read-out: IC50 of EZH2 inhibition
pIC50: −log10 of the molar value.

molecule | pIC50
CCN(c1cc(O[C@H]2C[C@H](N3CCOCC3)C2)cc(C(=O)N(C)Cc2c(C)cc(C)[nH]c2=O)c1C)C1CCOCC1 [Example 51] | 6.00 to 7.00
CCN(c1cc(O[C@H]2C[C@H](N3C[C@@H](C)O[C@@H](C)C3)C2)cc(C(=O)NCc2c(C)cc(C)[nH]c2=O)c1C)[C@H]1C[C@@H](C)O[C@@H](C)C1 [Example 35] | 7.00 to 8.00
CCN(c1cc(O[C@H]2C[C@H](N3CCN(S(C)(=O)=O)CC3)C2)cc(C(=O)NCc2c(C)cc(C)[nH]c2=O)c1C)C1CCOCC1 [Example 28] | 7.00 to 8.00
CCN(c1cc(O[C@H]2C[C@H](N3C[C@@H](C)O[C@@H](C)C3)C2)cc(C(=O)NCc2c(C)cc(C)[nH]c2=O)c1Cl)C1CCOCC1 [Example 48] | 7.00 to 8.00
CCN(c1cc(C2CC2CN2C[C@@H](C)O[C@@H](C)C2)cc(C(=O)NCc2c(C)cc(C)[nH]c2=O)c1C)C1CCOCC1 (stereo partly drawn) [Example 75] | 7.00 to 8.00
CCN(c1cc(O[C@H]2C[C@H](N3CC4CC(C3)O4)C2)cc(C(=O)NCc2c(C)cc(C)[nH]c2=O)c1C)C1CCOCC1 [Example 54] | 7.00 to 8.00
